Biological target: Protein A domain D
Assay: ELISA
Conditions: chain shown with the change;; parent: 7.5 nM
// assign true if EC50 falls strictly below 200 nM, else false (ties count as false)

Some entries whose results are on file:
sdAb n501 S18A (protein) EVQLVESGGGLVQPGGALRLSCAASDFTFRNYEMSWVRQAPGKGLEWVSSISGSGGSTYYAHSLKGRFTISRDNSKNTLYLQMNSLRAEDTAIYYCARLRDGFNNGFDYWGQGTLVTVSS : false
sdAb n501 N92A (protein) EVQLVESGGGLVQPGGSLRLSCAASDFTFRNYEMSWVRQAPGKGLEWVSSISGSGGSTYYAHSLKGRFTISRDNSKNTLYLQMASLRAEDTAIYYCARLRDGFNNGFDYWGQGTLVTVSS : true
sdAb n501 G16A (protein) EVQLVESGGGLVQPAGSLRLSCAASDFTFRNYEMSWVRQAPGKGLEWVSSISGSGGSTYYAHSLKGRFTISRDNSKNTLYLQMNSLRAEDTAIYYCARLRDGFNNGFDYWGQGTLVTVSS : true
sdAb n501 S79A (protein) EVQLVESGGGLVQPGGSLRLSCAASDFTFRNYEMSWVRQAPGKGLEWVSSISGSGGSTYYAHSLKGRFTIARDNSKNTLYLQMNSLRAEDTAIYYCARLRDGFNNGFDYWGQGTLVTVSS : false
sdAb n501 R95A (protein) EVQLVESGGGLVQPGGSLRLSCAASDFTFRNYEMSWVRQAPGKGLEWVSSISGSGGSTYYAHSLKGRFTISRDNSKNTLYLQMNSLAAEDTAIYYCARLRDGFNNGFDYWGQGTLVTVSS : false
sdAb n501 K72A (protein) EVQLVESGGGLVQPGGSLRLSCAASDFTFRNYEMSWVRQAPGKGLEWVSSISGSGGSTYYAHSLAGRFTISRDNSKNTLYLQMNSLRAEDTAIYYCARLRDGFNNGFDYWGQGTLVTVSS : false

For the next question, use this binder.
Task item: Here's an entry: sdAb n501 Y67A (protein) EVQLVESGGGLVQPGGSLRLSCAASDFTFRNYEMSWVRQAPGKGLEWVSSISGSGGSTYAAHSLKGRFTISRDNSKNTLYLQMNSLRAEDTAIYYCARLRDGFNNGFDYWGQGTLVTVSS . Is its EC50 below 200 nM?
Reply: true
